- Assay text: Apparent permeability coefficient for apical to basolateral flux was determined by Madin-Darby canine kidney cell monolayer transport assay
- Format: ADME, cell-based, Canis lupus familiaris
- Study conditions: dog, MDCK
Cut-off 7 ×10⁻⁶ cm/s on Papp A→B: below means rule met, at or above means rule not met.

                            smiles_notation  assigned_class
0  CCCC[C@H](NC(=O)OCC1(Cc2ccc(F)cc2)CCC1)C(=O)C(=O)Nc1ccn[nH]1    rule not met
1  CNC(=O)NCCCC[C@H](NC(=O)OCC1(Cc2c(F)cccc2F)CCC1)C(=O)C(=O)N[C@H](C)c1ccccc1    rule not met
2  C[C@@H](NC(=O)C(=O)[C@H](CCCCNC(=O)N1CCOCC1)NC(=O)OCC1(Cc2ccc(F)cc2)CCC1)c1ccccc1    rule not met

Now let's try a different one.
Ask: Hi there! Is Papp A→B for C[C@@H](NC(=O)C(=O)[C@H](CCCCNC(=O)N1CCOCC1)NC(=O)OCC1(Cc2ccncc2)CCC1)c1ccccc1 below 7 ×10⁻⁶ cm/s, do you know?
Reply: rule met
